The reported measurements were obtained from paper PMC6792352.

- ASSAY_NAME: Global cytotoxicity: eighteen Tox21 cell viability assays
- Type: cell-based
Recorded AC50 by entry
PROPERTY_MEASURED: AC50 (µM)

# COMPOUND, PROPERTY_MEASURED, UNIT_LABEL, CENSORING_QUALIFIER, RESULT_VALUE
data = [
    ("O=C(O)Cc1cc(I)c(Oc2ccc(O)c(I)c2)c(I)c1 [Tiratricol, reference compound]", "AC50", "µM", "=", 27),
    ("C=C(c1ccc(C(=O)O)cc1)c1cc2c(cc1C)C(C)(C)CCC2(C)C [Bexarotene, reference compound]", "AC50", "µM", "=", 23.9),
    ("N[C@@H](Cc1cc(I)c(Oc2ccc(O)c(I)c2)c(I)c1)C(=O)O [3,5,3ʹ-Triiodothyronine, reference compound]", "AC50", "µM", ">", 92),
    ("O=C(O)CCNC(=O)c1ccccc1 [Betamipron, reference compound]", "AC50", "µM", ">", 92),
    ("CC[C@H]1OC(=O)C[C@@H](O)[C@H](C)[C@@H](O[C@@H]2O[C@H](C)C[C@H](N(C)C)[C@H]2O)[C@@H](CC=O)C[C@@H](C)C(=O)/C=C/[C@]2(C)O[C@H]2[C@@H]1C [Rosaramicin]", "AC50", "µM", "=", 26.8),
    ("COC(=O)C[C@](O)(CCCC(C)(C)O)C(=O)O[C@@H]1C(OC)=C[C@]23CCCN2CCc2cc4c(cc2[C@H]13)OCO4 [Omacetaxine mepesuccinate]", "AC50", "µM", "=", 0.06),
    ("CC(C)C[C@H](NC(=O)[C@H](CCc1ccccc1)NC(=O)CN1CCOCC1)C(=O)N[C@@H](Cc1ccccc1)C(=O)N[C@@H](CC(C)C)C(=O)[C@@]1(C)CO1 [Carfilzomib]", "AC50", "µM", "=", 0.46),
]
